Assay: Hemolysis assay
Type: cell-based
Settings: sheep, pH 7.4; 32 µg/mL, 1 h, 37 °C; 1% Triton X-100 positive control; triplicate; read-out: Hemolysis (%)
MEASUREMENT LABEL: hemolysis at 1 h, 32 µg/mL

Ask: Give the measured hemolysis at 1 h, 32 µg/mL for O=C(Nc1ccc(Oc2ccc(Cl)cc2)c(Cl)c1)c1cc(I)cc(I)c1O [Rafoxanide, rafoxanide]
Result: < 1%

----------
Test system: A. baumannii M2
Assay: MIC by broth microdilution
Assay type: cell-based
Settings: Acinetobacter baumannii; A. baumannii M2; CAMHB, aerobic; duplicate; read-out: MIC
Where a name gives a salt, the structure may show the parent alone.
Catalogue of compounds with associated MIC

COMPOUND	MIC
Cc1ncc([N+](=O)[O-])n1CCO [Metronidazole, metronidazole]	> 32 µg/mL
CN[C@H](CC(C)C)C(=O)N[C@H]1C(=O)N[C@@H](CC(N)=O)C(=O)N[C@H]2C(=O)N[C@H]3C(=O)N[C@H](C(=O)N[C@H](C(=O)O)c4cc(O)cc(O)c4-c4cc3ccc4O)[C@H](O)c3ccc(c(Cl)c3)Oc3cc2cc(c3O[C@@H]2O[C@H](CO)[C@@H](O)[C@H](O)[C@H]2O[C@H]2C[C@](C)(N)[C@H](O)[C@H](C)O2)Oc2ccc(cc2Cl)[C@H]1O [Vancomycin, vancomycin hydrochloride hydrate]	> 32 µg/mL
O=C(Nc1ccc(Oc2ccc(Cl)cc2)cc1)c1cc(I)cc(I)c1 [Compound 5i]	> 32 µg/mL
Cc1cc(C(C#N)c2ccc(Cl)cc2)c(Cl)cc1NC(=O)c1cc(I)cc(I)c1O (stereo not shown) [Closantel]	> 32 µg/mL
O=C(Nc1ccc(Oc2ccc(Cl)cc2)cc1)c1cc(Cl)cc(Cl)c1O [Compound 8]	32 µg/mL

Ask: Hello, please tell me recorded MIC for this one: O=C(Nc1ccc(Cl)cc1)c1cc(I)cc(I)c1O [Compound 7b]
Result: 32 µg/mL

Ask: Give the measured MIC for O=C(Nc1ccc2ccccc2c1)c1cc(I)cc(I)c1O [Compound 6a]
Result: > 32 µg/mL

----------
System: P. distasonis ATCC 8503
Assay: MIC by broth microdilution
Type: cell-based
Details: Parabacteroides distasonis, ATCC8503; P. distasonis ATCC 8503; supplemented Brucella broth, anaerobic; duplicate; read-out: MIC
Reported MIC is given for each of the following compounds.

Ask: Report the value of MIC obtained on P. distasonis ATCC 8503 for O=C(Nc1ccc(Oc2ccc(Cl)cc2)cc1)c1cc(Cl)cc(Cl)c1O [Compound 8] .
Result: 4 µg/mL

----------
Test system: B. fragilis Strain CL05T00C42
Assay: MIC by broth microdilution
Format: cell-based
Details: Bacteroides fragilis; B. fragilis CL05T00C42; supplemented Brucella broth, anaerobic; duplicate; read-out: MIC
MEASUREMENT LABEL: MIC (µg/mL)
Answer format: numeric, µg/mL implied, no suffix.

> print(dat)
                    structure.smiles.string                 assayed.system  measurement.label  readout.number
1  O=C(Nc1ccc(Oc2ccc(Cl)cc2)cc1)c1cc(Cl)cc(Cl)c1O  B. fragilis Strain CL05T00C42                MIC              16
2       O=C(Nc1ccc2ccccc2c1)c1cc(I)cc(I)c1O  B. fragilis Strain CL05T00C42                MIC              32
3                 Cc1ncc([N+](=O)[O-])n1CCO  B. fragilis Strain CL05T00C42                MIC             0.5

We next turn to a different compound, shown below.
Ask: Report measured MIC on B. fragilis Strain CL05T00C42; entry: O=C(Nc1ccc(Cl)cc1)c1cc(I)cc(I)c1O
Result: 32

----------
Tested on: 16 C. difficile isolates
Experiment: MIC by broth microdilution, summary over 16 C. difficile isolates
Type: cell-based, Clostridium difficile
Details: range over 16 C. difficile isolates; n = 2
Structures can show the parent of a compound that is named as a salt.
MEASUREMENT LABEL: MIC Range

Worked set:
COMPOUND	RESULT
O=C(Nc1ccc(Oc2ccc(Cl)cc2)c(Cl)c1)c1cc(I)cc(I)c1O [Rafoxanide, rafoxanide]	0.03 to 0.13 µg/mL
O=C(Nc1cc(Cl)cc(Cl)c1O)c1c(O)c(Cl)cc(Cl)c1Cl [Oxyclozanide, oxyclozanide]	0.5 to 2 µg/mL
O=C(Nc1ccc([N+](=O)[O-])cc1Cl)c1cc(Cl)ccc1O [Niclosamide, niclosamide]	0.5 to 4 µg/mL
Cc1ncc([N+](=O)[O-])n1CCO	0.13 to 0.25 µg/mL
Cc1cc(C(C#N)c2ccc(Cl)cc2)c(Cl)cc1NC(=O)c1cc(I)cc(I)c1O (stereo not drawn)	0.13 to 1 µg/mL

Now, please, on to the next compound.
Ask: // fetch MIC Range given entry CN[C@H](CC(C)C)C(=O)N[C@H]1C(=O)N[C@@H](CC(N)=O)C(=O)N[C@H]2C(=O)N[C@H]3C(=O)N[C@H](C(=O)N[C@H](C(=O)O)c4cc(O)cc(O)c4-c4cc3ccc4O)[C@H](O)c3ccc(c(Cl)c3)Oc3cc2cc(c3O[C@@H]2O[C@H](CO)[C@@H](O)[C@H](O)[C@H]2O[C@H]2C[C@](C)(N)[C@H](O)[C@H](C)O2)Oc2ccc(cc2Cl)[C@H]1O [Vancomycin, vancomycin hydrochloride hydrate]
Result: 0.5 to 2 µg/mL

----------
Each entry below lists one item and its recorded MIC value.
System: L. plantarum ATCC 8014
Assay: MIC by broth microdilution
Type: cell-based
Details: Lactiplantibacillus plantarum, ATCC8014; L. plantarum ATCC 8014; CAMHB with 5% laked horse blood, ~48 h; duplicate; read-out: MIC
Counter-ions that a name gives are not always drawn.

Reference set (6 entries):
MOLECULE	MIC
Cc1ncc([N+](=O)[O-])n1CCO [Metronidazole, metronidazole]	> 32 mg/L
Cc1cc(C(C#N)c2ccc(Cl)cc2)c(Cl)cc1NC(=O)c1cc(I)cc(I)c1O (stereo not shown) [Closantel]	> 32 mg/L
O=C(Nc1ccc2ccccc2c1)c1cc(I)cc(I)c1O [Compound 6a]	> 32 mg/L
O=C(Nc1ccc(Cl)cc1)c1cc(I)cc(I)c1O [Compound 7b]	32 mg/L
O=C(Nc1ccc(Oc2ccc(Cl)cc2)cc1)c1cc(I)cc(I)c1 [Compound 5i]	> 32 mg/L
CN[C@H](CC(C)C)C(=O)N[C@H]1C(=O)N[C@@H](CC(N)=O)C(=O)N[C@H]2C(=O)N[C@H]3C(=O)N[C@H](C(=O)N[C@H](C(=O)O)c4cc(O)cc(O)c4-c4cc3ccc4O)[C@H](O)c3ccc(c(Cl)c3)Oc3cc2cc(c3O[C@@H]2O[C@H](CO)[C@@H](O)[C@H](O)[C@H]2O[C@H]2C[C@](C)(N)[C@H](O)[C@H](C)O2)Oc2ccc(cc2Cl)[C@H]1O [Vancomycin, vancomycin hydrochloride hydrate]	> 32 mg/L

Please examine the following record next.
Ask: Specify reported MIC for the molecule shown: O=C(Nc1ccc(Oc2ccc(Cl)cc2)cc1)c1cc(Cl)cc(Cl)c1O [Compound 8]
Result: 16 mg/L

----------
System: C. difficile strain 630 (CD630, ATCC BAA-1382-FZ, ribotype 012)
Assay: MIC by broth microdilution
Type: cell-based, Clostridium difficile
Details: Clostridioides difficile, ATCCBAA1382; BHIS broth, anaerobic, 20–24 h, n = 2
MEASUREMENT LABEL: MIC

> print(dat)
                                   compound      result
1  CN(C(=O)c1cc(I)cc(I)c1O)c1ccc(Oc2ccccc2)cc1 [Compound 5d]  > 32 µg/mL
2  COc1c(I)cc(I)cc1C(=O)Nc1ccc(Oc2ccc(Cl)cc2)cc1 [Compound 5h]  > 32 µg/mL
3  O=C(Nc1ccc2ccccc2c1)c1cc(I)cc(I)c1O [Compound 6a]   0.5 µg/mL
4  O=C(Nc1ccc(Oc2ccccc2)cc1)c1cc(I)cc(I)c1O [Compound 5a]   0.5 µg/mL
5  O=C(Nc1ccc2ccccc2c1)c1cc(I)cc(I)c1 [Compound 6c]  > 32 µg/mL

Ask: Retrieve MIC measured for O=C(NCCc1ccc(Cl)cc1)c1cc(I)cc(I)c1O [Compound 7h] and print it.
Result: 0.25 µg/mL

Ask: Determine from records and report MIC for O=C(Nc1ccc(Oc2ccccc2)cc1)c1cc(I)cc(I)c1 [Compound 5c]
Result: > 32 µg/mL

Ask: // Input: O=C(Nc1ccc(-c2ccccc2)cc1)c1cc(I)cc(I)c1O [Compound 7a] . Output its MIC only.
Result: 0.5 µg/mL

Ask: Kindly indicate its recorded MIC. Item: COc1c(I)cc(I)cc1C(=O)Nc1ccc(Oc2ccccc2)cc1 [Compound 5b]
Result: > 32 µg/mL
